Values compiled from paper PMC8934638.

Target: T1, Ioc4 dPWWP (Saccharomyces cerevisiae, UniProt Q04213 179-475, del1-178)
T1 sequence: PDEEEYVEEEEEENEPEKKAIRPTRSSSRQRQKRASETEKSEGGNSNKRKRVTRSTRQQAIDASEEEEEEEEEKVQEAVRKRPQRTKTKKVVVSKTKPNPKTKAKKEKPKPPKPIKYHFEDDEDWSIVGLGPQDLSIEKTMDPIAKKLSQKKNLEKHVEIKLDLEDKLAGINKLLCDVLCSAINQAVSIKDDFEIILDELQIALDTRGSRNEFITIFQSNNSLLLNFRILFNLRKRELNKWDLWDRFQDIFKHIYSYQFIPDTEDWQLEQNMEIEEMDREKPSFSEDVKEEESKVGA
Test: EMSA; EMSA; 15 fmol NCP (30 fmol unmodified NCP) per reaction; 5% native PAGE (37.5:1) in 0.4x TBE, 2% glycerol; binding buffer, pH and temperature not given (as in cited work)
Settings: protein: recombinant; tags: N-terminal 6xHis-MBP; label: Cy5 on sense strand; blunt
reported metric: pKd
To interpret pKd, take it as minus log10 of a concentration measured in moles per litre.

Ask | Find the recorded pKd belonging to dsDNA 30 bp (601-derived EMSA probe) (dsDNA) DNA 1: GGCAAGGTCGCTGTTCAATACATGCACAGG DNA 2: CCTGTGCATGTATTGAACAGCGACCTTGCC and report it.
Reply | 6.92
